target: P2Y purinoceptor 12 (Homo sapiens)
Sequence (Q9H244 whole entry): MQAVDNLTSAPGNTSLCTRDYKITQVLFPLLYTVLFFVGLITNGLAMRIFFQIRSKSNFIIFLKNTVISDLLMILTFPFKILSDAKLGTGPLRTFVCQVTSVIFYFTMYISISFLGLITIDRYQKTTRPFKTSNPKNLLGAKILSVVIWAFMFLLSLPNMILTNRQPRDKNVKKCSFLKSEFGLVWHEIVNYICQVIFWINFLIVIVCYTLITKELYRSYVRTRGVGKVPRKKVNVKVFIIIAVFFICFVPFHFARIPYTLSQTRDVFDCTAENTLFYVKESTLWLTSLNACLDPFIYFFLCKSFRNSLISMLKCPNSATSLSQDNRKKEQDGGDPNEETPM
measure: Ki

[
  {
    "compound": "CN(C)[C@@H]1C(=O)C(C(N)=O)C(=O)[C@@]2(O)C(=O)C3C(=O)c4c(O)ccc(Cl)c4[C@@](C)(O)[C@H]3C[C@@H]12 (some centres not stated)",
    "value measured": "> 10 µM"
  }
]

Summary: CN(C)[C@@H]1C(=O)C(C(N)=O)C(=O)[C@@]2(O)C(=O)C3C(=O)c4c(O)cccc4[C@@](C)(O)[C@H]3C[C@@H]12 (some centres not stated) , P2Y purinoceptor 12 (Homo sapiens), Ki = > 10 µM

====

test details: Displacement of [3H]DPCPX from human adenosine A1 receptor expressed in CHO cells assessed as ratio of IC50 in presence of GTP to absence of GTP by GTP shift assay
measure: pIC50
Quick note: pIC50 values are minus log10 of concentrations in mol/L.

response.value for Nc1c(S(=O)(=O)O)cc(Nc2ccc(Nc3ncccn3)c(S(=O)(=O)O)c2)c2c1C(=O)c1ccccc1C2=O (field: pIC50) = 6.12
